- Tested System: PDK3 (Homo sapiens, UniProt Q15120)
- Sequence (Q15120 whole entry): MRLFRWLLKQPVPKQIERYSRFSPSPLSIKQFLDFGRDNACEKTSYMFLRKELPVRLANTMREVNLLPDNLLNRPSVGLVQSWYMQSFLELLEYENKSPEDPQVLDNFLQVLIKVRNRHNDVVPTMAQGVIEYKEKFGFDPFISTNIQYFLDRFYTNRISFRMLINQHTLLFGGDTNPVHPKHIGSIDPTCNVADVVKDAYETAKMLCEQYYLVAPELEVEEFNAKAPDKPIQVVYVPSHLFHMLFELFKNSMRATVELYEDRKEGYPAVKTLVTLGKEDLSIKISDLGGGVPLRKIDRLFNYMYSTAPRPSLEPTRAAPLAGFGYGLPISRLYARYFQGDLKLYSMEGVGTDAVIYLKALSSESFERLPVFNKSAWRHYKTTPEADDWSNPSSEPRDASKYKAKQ
- Sequence (P08559 30-390 partner): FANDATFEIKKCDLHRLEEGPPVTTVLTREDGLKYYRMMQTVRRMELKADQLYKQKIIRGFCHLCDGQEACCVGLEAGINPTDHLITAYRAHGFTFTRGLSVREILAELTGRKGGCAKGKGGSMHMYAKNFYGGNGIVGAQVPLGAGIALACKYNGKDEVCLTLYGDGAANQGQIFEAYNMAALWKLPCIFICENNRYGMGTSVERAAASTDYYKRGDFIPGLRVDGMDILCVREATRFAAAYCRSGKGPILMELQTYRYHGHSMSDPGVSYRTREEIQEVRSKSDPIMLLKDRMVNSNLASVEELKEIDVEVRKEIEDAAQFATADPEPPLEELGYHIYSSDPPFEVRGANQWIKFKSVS
- Assay Remarks: […]-phosphate incorporation into recombinant E1alpha by recombinant human PDK3; Lineweaver-Burk kinetics
- Test Context: read-out: Ki (phenylbutyrate)
Test Readout: Ki (µM)

[[record]]
compound = "O=C(O)CCCc1ccccc1 [PB, phenylbutyrate]"
tested_system = "PDK3 (Homo sapiens, UniProt Q15120)"
meas_value = 980

